All figures here come from patent US20240261333A1.

Target: T1, B3GNT2 (Homo sapiens, UniProt Q9NY97)
T1 construct: The respective ORFs of candidate genes [CD274 (NM_014143), MCL1 (NM_021960), JUNB (NM_002229), and B3GNT2 (NM_006577)] were synthesized; expressed in transfected cells; host or cells: A375 melanoma cells (lentiviral ORF overexpression)
T1 sequence (Q9NY97 1-397): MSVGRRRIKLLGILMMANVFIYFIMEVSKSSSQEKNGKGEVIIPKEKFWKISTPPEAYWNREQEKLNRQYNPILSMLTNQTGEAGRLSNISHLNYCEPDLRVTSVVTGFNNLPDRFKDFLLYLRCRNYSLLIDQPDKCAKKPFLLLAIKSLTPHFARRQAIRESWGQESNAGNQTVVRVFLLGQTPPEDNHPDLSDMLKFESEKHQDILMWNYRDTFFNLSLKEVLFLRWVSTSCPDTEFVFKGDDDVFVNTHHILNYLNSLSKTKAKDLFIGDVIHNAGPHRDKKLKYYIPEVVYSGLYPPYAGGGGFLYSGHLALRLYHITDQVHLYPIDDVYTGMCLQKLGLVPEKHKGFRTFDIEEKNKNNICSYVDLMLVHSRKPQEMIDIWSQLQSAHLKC
Assay: Co-IP of FLAG-tagged B3GNT2 followed by mass spectrometry
Format: cell-based
Set-up: unit not given here
Settings: Co-IP with FLAG antibody, C-terminally FLAG-tagged B3GNT2; mass spectrometry count, unit not given
The label Yes is reserved for C-term flag strictly under 4; No covers values equal to or above it.

These recorded examples may help you get a feel for the data.
{"molecule": "FAM3C (protein) QVFEIKMDASLGNLFARSALDTAARSTKPPRYKCGISKACPEKHFAFKMASGAANVVGPKICLEDNVLMSGVKNNVGRGINVALANGKTGEVLDTKYFDMWGGDVAPFIEFLKAIQDGTIVLMGTYDDGATKLNDEARRLIADLGSTSITNLGFRDNWVFCGGKGIKTKSPFEQHIKNNKDTNKYEGWPEVVEMEGCIPQKQD", "assigned.class": "No"}
{"molecule": "DSTN (protein) ASGVQVADEVCRIFYDMKVRKCSTPEEIKKRKKAVIFCLSADKKCIIVEEGKEILVGDVGVTITDPFKHFVGMLPEKDCRYALYDASFETKESRKEELMFFLWAPELAPLKSKMIYASSKDAIKKKFQGIKHECQANGPEDLNRACIAEKLGGSLIVAFEGCPV", "assigned.class": "Yes"}
{"molecule": "SPRR2E (protein) MSYQQQQCKQPCQPPPVCPTPKCPEPCPPPKCPEPCPPPKCPQPCPPQQCQQKCPPVTPSPPCQPKCPPKSK", "assigned.class": "Yes"}

In: # TODO verify C-term flag < 4 strictly for this molecule: SERPINE2 (protein) SHFNPLSLEELGSNTGIQVFNQIVKSRPHDNIVISPHGIASVLGMLQLGADGRTKKQLAMVMRYGVNGVGKILKKINKAIVSKKNKDIVTVANAVFVKNASEIEVPFVTRNKDVFQCEVRNVNFEDPASACDSINAWVKNETRDMIDNLLSPDLIDGVLTRLVLVNAVYFKGLWKSRFQPENTKKRTFVAADGKSYQVPMLAQLSVFRCGSTSAPNDLWYNFIELPYHGESISMLIALPTESSTPLSAIIPHISTKTIDSWMSIMVPKRVQVILPKFTAVAQTDLKEPLKVLGITDMFDSSKANFAKITTGSENLHVSHILQKAKIEVSEDGTKASAATTAILIARSSPPWFIVDRPFLFFIRHNPTGAVLFMGQINKP
Out: No
